Substrate: O=C(O)C(=O)C[C@H](O)CO
Experiment summary: purified protein, by the assay type
Parameters: coupled assay with PpKGSADH, NADH formation at 340 nm, Michaelis-Menten fit, 25 °C, pH 7.5
Experimental context: pH 7.5; 25.0 °C
Measured quantity: kcat (s⁻¹)
Give the number; s⁻¹ is assumed, so skip it.

Q. Return kcat for the following protein: CnL-KdpD (Chis) (Cupriavidus necator H16) (protein, C-terminal His6 tag (kept), pET vector, E. coli BL21(DE3), HisTrap purified; strain given inconsistently (H16 gDNA vs N-1)) MTRTPSPTVYRGVFPVAPTVFDAQGGLDLDGQRRCIDFMIDAGSHGICILANFSEQFVLSDDERNVLMKTVLEHVDGRVPVIVTTTHFSSRLCAERSRAAQDAGAAMVMVMPPYHGATIRVPERSIYEFFATVSDAIDIPIMIQDAPVSGTTLSAPFLARMAREIGNVSYFKIEVPQAAAKLRELIELGGDAIVGPWDGEEAITLMADLEAGATGAMTGAGFPDGIRQILDAWQAGDAELAAQRYQQWLPLINYENRQGWLATSKVLMQAGGVIASDAVRHPLQPMHPATREGLLKIARRLDPLVLRWAR
A. 11
